System: Antibody A specific for cortisol (clone 16DC/17.7, IgG1κ)
Assay: LOCI competitive cortisol immunoassay, cross-reactivity screening with Biotinylated Antibody A Reagent
Assay type: binding
Conditions: 100% A Biotinylated Antibody; steroid-stripped serum with cortisol (5 ng/dL)
Below: a set of entries, each annotated with reported percent cross reactivity.

| molecule | percent cross reactivity |
| --- | --- |
| C[C@]12C=CC(=O)C=C1CC[C@@H]1[C@@H]2C(=O)C[C@@]2(C)[C@H]1CC[C@]2(O)C(=O)CO | 26.5% |
| CC(=O)[C@@]1(O)CC[C@H]2[C@@H]3CCC4=CC(=O)CC[C@]4(C)[C@H]3CC[C@@]21C [17α-hydroxyprogesterone] | 24.1% |
| C[C@]12CC[C@@H](O)C[C@@H]1CC[C@@H]1[C@@H]2[C@@H](O)C[C@@]2(C)[C@H]1CC[C@]2(O)C(=O)CO [allotetrahydrocortisol] | 4.7% |
| C[C@]12C[C@H](O)[C@H]3[C@@H](CCC4=CC(=O)CC[C@@]43C)[C@@H]1CC[C@@H]2C(=O)CO | 0.6% |
| C[C@]12CC[C@@H](O)C[C@H]1CC[C@@H]1[C@@H]2CC[C@@]2(C)[C@H]1CC[C@]2(O)C(=O)CO [tetrahydro-11-deoxycortisol] | 0.3% |

The reported percent cross reactivity of the molecule CC(=O)[C@@]1(O)CC[C@H]2[C@@H]3CCC4=CC(=O)CC[C@]4(C)[C@H]3[C@@H](O)C[C@@]21C was 8.3%

Looking up CC(=O)[C@H]1CC[C@H]2[C@@H]3CCC4=CC(=O)CC[C@]4(C)[C@H]3[C@@H](O)C[C@]12C [11β-hydroxyprogesterone] , I see its percent cross reactivity listed as 0.6%

---

Test system: Antibody A specific for cortisol (clone 16DC/17.7, IgG1κ)
Assay: LOCI competitive cortisol immunoassay, cross-reactivity screening with Biotinylated Antibody A Reagent
Type: binding
Conditions: 100% A Biotinylated Antibody; steroid-stripped serum with cortisol (5 ng/dL)
percent cross reactivity values by entry

| compound | measured-attribute | reported-value |
| --- | --- | --- |
| CC(=O)[C@H]1CC[C@H]2[C@@H]3CCC4=CC(=O)CC[C@]4(C)[C@H]3CC[C@]12C [progesterone] | percent cross reactivity | 0.6% |
| CC(=O)OCC(=O)[C@@]1(O)CC[C@H]2[C@@H]3CCC4=CC(=O)CC[C@]4(C)[C@@]3(F)[C@@H](O)C[C@@]21C [fluorocortisone acetate] | percent cross reactivity | 35.3% |
| C[C@]12CC[C@@H](O)C[C@H]1CC[C@@H]1[C@@H]2[C@@H](O)C[C@@]2(C)[C@H]1CC[C@]2(O)[C@H](O)CO [β-cortol] | percent cross reactivity | 0.0% |

Kindly note: Antibody A specific for cortisol (clone 16DC/17.7, IgG1κ), C[C@]12CCC(=O)C=C1CC[C@@H]1[C@@H]2[C@@H](O)C[C@@]2(C)[C@H]1CC[C@]2(O)[C@H](O)CO [20β-dihydrocortisol] , percent cross reactivity value reported: 0.6%

percent cross reactivity value, target or system Antibody A specific for cortisol (clone 16DC/17.7, IgG1κ), for CC(=O)[C@@]1(O)CC[C@H]2[C@@H]3CC=C4C[C@@H](O)CC[C@]4(C)[C@H]3CC[C@@]21C [17β-hydroxypregnenolone] : 0.1%

---

Tested on: Antibody A specific for cortisol (clone 16DC/17.7, IgG1κ)
Experiment: LOCI competitive cortisol immunoassay, cross-reactivity screening with Biotinylated Antibody A Reagent
Format: binding
Details: 100% A Biotinylated Antibody; steroid-stripped serum with cortisol (5 ng/dL)
measured-attribute: percent cross reactivity (%)
# number only, unit % dropped from output

Recorded percent cross reactivity, per entry:
| compound | reported-value |
| --- | --- |
| C[C@]12CCC(=O)C=C1CC[C@@H]1[C@@H]2C(=O)C[C@@]2(C)[C@H]1CC[C@]2(O)[C@H](O)CO [20β-dihydrocortisone] | 0.1 |
| C[C@]12CC(=O)[C@H]3[C@@H](CCC4=CC(=O)CC[C@@]43C)[C@@H]1CC[C@@H]2C(=O)CO [dehydrocorticosterone] | 0.6 |
| C[C@]12CCC(=O)C=C1CC[C@@H]1[C@@H]2C(=O)C[C@@]2(C)[C@H]1CC[C@]2(O)C(=O)CO | 41.7 |
| C[C@]12CCC(=O)C=C1CC[C@@H]1[C@@H]2[C@@H](O)C[C@@]2(C)[C@H]1CC[C@]2(O)[C@@H](O)CO [20α-dihydrocortisol] | 0.4 |

Kindly note: Antibody A specific for cortisol (clone 16DC/17.7, IgG1κ), C[C@]12CCC(=O)C=C1CC[C@@H]1[C@@H]2[C@@H](O)C[C@]2(C=O)[C@@H](C(=O)CO)CC[C@@H]12 , percent cross reactivity value reported: 0.3

Known value: Antibody A specific for cortisol (clone 16DC/17.7, IgG1κ) percent cross reactivity of the compound C[C@]12CC[C@@H](O)C[C@H]1CC[C@@H]1[C@@H]2C(=O)C[C@@]2(C)[C@H]1CC[C@]2(O)[C@H](O)CO equals 0.0

Observed percent cross reactivity on Antibody A specific for cortisol (clone 16DC/17.7, IgG1κ), entry C[C@]12CC[C@@H](O)C[C@H]1CC[C@@H]1[C@@H]2C(=O)C[C@@]2(C)[C@H]1CC[C@]2(O)[C@@H](O)CO , equals 0.0

Form: item C[C@]12CCC(=O)C=C1[C@H](O)C[C@@H]1[C@@H]2[C@@H](O)C[C@@]2(C)[C@H]1CC[C@]2(O)C(=O)CO [6β-hydroxycortisol] ; test system Antibody A specific for cortisol (clone 16DC/17.7, IgG1κ); percent cross reactivity: 2.7

The measured percent cross reactivity that CC(=O)[C@@]1(O)CC[C@H]2[C@@H]3CCC4=CC(=O)CC[C@]4(C)[C@H]3C(=O)C[C@@]21C showed for Antibody A specific for cortisol (clone 16DC/17.7, IgG1κ) is 36.4

---

Test system: Antibody A specific for cortisol (clone 16DC/17.7, IgG1κ)
Assay: LOCI competitive cortisol immunoassay, cross-reactivity screening with Biotinylated Antibody A Reagent
Type: binding
Conditions: 100% A Biotinylated Antibody; steroid-stripped serum with cortisol (5 ng/dL)
Mark true (1) only for percent cross reactivity values smaller than 0.7%; exact matches and larger values are false (0).

Would you please look over these solved cases?
| compound | assigned-label |
| --- | --- |
| C[C@]12CCC(=O)C[C@H]1CC[C@@H]1[C@@H]2[C@@H](O)C[C@@]2(C)[C@H]1CC[C@]2(O)C(=O)CO [5β-dihydrocortisol] | true (1) |
| C[C@]12C=CC(=O)C=C1CC[C@@H]1[C@@H]2[C@@H](O)C[C@@]2(C)[C@H]1CC[C@]2(O)C(=O)CO | false (0) |
| C[C@]12CCC(=O)C=C1CC[C@@H]1[C@@H]2CC[C@@]2(C)[C@H]1CC[C@]2(O)C(=O)CO | false (0) |
| C[C@]12CC[C@@H](O)C[C@H]1CC[C@@H]1[C@@H]2[C@@H](O)C[C@@]2(C)[C@H]1CC[C@]2(O)C(=O)CO [tetrahydrocortisol] | true (1) |
| C[C@]12CCC(=O)C=C1CC[C@@H]1[C@@H]2C(=O)C[C@@]2(C)[C@H]1CC[C@]2(O)[C@@H](O)CO [20α-dihydrocortisone] | false (0) |
| C[C@]12CC[C@@H](O)C[C@H]1CC[C@@H]1[C@@H]2[C@@H](O)C[C@@]2(C)[C@H]1CC[C@]2(O)[C@@H](O)CO | true (1) |

Query string: In plain terms, does C[C@H]1C[C@@H]2[C@H]([C@@H](O)C[C@@]3(C)[C@H]2CC[C@]3(O)C(=O)CO)[C@@]2(C)C=CC(=O)C=C12 come in under 0.7% for percent cross reactivity?
Result string: false (0)

Query string: Decide: percent cross reactivity of C[C@]12CCC(=O)C=C1CC[C@@H]1[C@@H]2[C@@H](O)C[C@@]2(C)[C@H]1CC[C@]2(O)C(=O)COS(=O)(=O)O [sulphate 21-cortisol] strictly below 0.7%?
Result string: false (0)

Query string: Quick check: does C[C@]12CC[C@@H](O)C[C@H]1CC[C@@H]1[C@@H]2C(=O)C[C@@]2(C)[C@H]1CC[C@]2(O)C(=O)CO [tetrahydrocortisone] have percent cross reactivity under 0.7%?
Result string: true (1)

Query string: Dear reviewer, please state whether C[C@]12CC[C@@H](O)C[C@H]1CC[C@@H]1[C@@H]2C(=O)C[C@]2(C)C(=O)CC[C@@H]12 has percent cross reactivity strictly beneath 0.7%.
Result string: true (1)
